- Tested On: Dopamine beta hydroxylase (Homo sapiens, UniProt P09172)
- Construct: 125 μl of plasma; tissue Instituto Português do Sangue Transplantação; host or cells: human plasma from healthy donors
- Sequence (P09172 40-617 limits assumed): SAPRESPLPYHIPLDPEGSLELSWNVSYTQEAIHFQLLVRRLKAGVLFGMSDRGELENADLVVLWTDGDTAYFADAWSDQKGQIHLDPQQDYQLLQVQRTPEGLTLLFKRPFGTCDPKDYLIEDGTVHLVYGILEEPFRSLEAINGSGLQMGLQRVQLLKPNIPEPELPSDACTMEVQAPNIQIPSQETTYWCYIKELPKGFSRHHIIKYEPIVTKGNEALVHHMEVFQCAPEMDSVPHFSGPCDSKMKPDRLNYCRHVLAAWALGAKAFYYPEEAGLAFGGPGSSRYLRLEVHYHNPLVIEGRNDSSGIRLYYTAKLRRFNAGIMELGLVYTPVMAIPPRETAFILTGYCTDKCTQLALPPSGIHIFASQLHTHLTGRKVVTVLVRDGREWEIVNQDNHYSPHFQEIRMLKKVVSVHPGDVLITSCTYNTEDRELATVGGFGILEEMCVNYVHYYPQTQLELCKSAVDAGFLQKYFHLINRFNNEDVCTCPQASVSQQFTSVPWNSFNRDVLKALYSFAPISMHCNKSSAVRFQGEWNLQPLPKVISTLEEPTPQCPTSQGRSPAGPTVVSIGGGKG
- Assay Protocol: Dopamine beta hydroxylase activity in human plasma
- Format: biochemical
- Reported Conditions: inhibitor 0.1 μM
As shown below, each of these compounds has a reported Plasma (0.1 μM), activity in % of control value.
Assay Metric: Plasma (0.1 μM), activity in % of control

Compound	Result
O=C(Cc1[nH]c(=S)n2c1[C@@H]1C[C@]1(c1cc(Br)ccc1F)C2)N1CCCC1 [Example 70]	36.6 % of control
Cn1c(CC(=O)NC2CCOCC2)c2n(c1=S)C[C@@H](c1c(F)c(F)cc(F)c1F)C2 [Example 297]	35.4 % of control
CN(C(=O)Cc1[nH]c(=S)n2c1[C@@H]1C[C@]1(c1c(F)ccc(Cl)c1F)C2)C1CCOC1 (some centres unmarked) [Example 396]	10.8 % of control
CN1CCN(C(=O)Cc2[nH]c(=S)n3c2C[C@@H](c2c(F)ccc(Br)c2F)C3)CC1 [Example 91]	19.0 % of control
CN(C(=O)Cc1[nH]c(=S)n2c1[C@@H]1C[C@]1(c1cc(Br)ccc1F)C2)C1CCCC1 [Example 155]	19.7 % of control
Cn1c(CC(N)=O)c2n(c1=S)C[C@H](c1c(F)ccc(Cl)c1F)C2 [Example 249]	40.9 % of control
CN(C(=O)Cc1c2n(c(=S)n1C)C[C@H](c1c(F)ccc(Br)c1F)C2)C1CCOC1 (some centres unmarked) [Example 252]	54.8 % of control
Cn1c(CC(=O)Nc2ncco2)c2n(c1=S)C[C@@H](c1c(F)ccc(F)c1F)C2 [Example 286]	3.4 % of control

###

- Tested On: Dopamine beta hydroxylase (Homo sapiens)
- Construct: 125 μl of plasma; tissue Instituto Português do Sangue Transplantação; host or cells: human plasma from healthy donors
- Assay Protocol: Dopamine beta hydroxylase activity in human plasma
- Assay type: biochemical
- Reported Conditions: inhibitor 0.01 μM
Assay Metric: Plasma (0.01 μM), activity in % of control

Compound	Result
CN1CC(NC(=O)Cc2c3n(c(=S)n2C)C[C@H](c2c(F)ccc(Br)c2F)C3)CCC1=O (stereo partly shown)	42.1 % of control
Cn1c(CCC(=O)N[C@@H]2CCCOC2)c2n(c1=S)C[C@@H](c1c(F)ccc(F)c1F)C2	82.0 % of control
Cn1c(CC(=O)NC2CCCCC2)c2n(c1=S)C[C@H](c1c(F)ccc(Cl)c1F)C2	35.4 % of control
O=C(Cc1[nH]c(=S)n2c1C[C@@H](c1c(F)ccc(Br)c1F)C2)N1CCOCC1	73.1 % of control
CN(C(=O)Cc1[nH]c(=S)n2c1C[C@H](c1c(F)c(F)cc(F)c1F)C2)C1CCOCC1	110.2 % of control
Cn1c(CC(=O)NC2CCCCC2)c2n(c1=S)C[C@@]1(c3cc(Cl)ccc3F)C[C@@H]21	62.7 % of control
Cn1c(CC(=O)N[C@@H]2CCCOC2)c2n(c1=S)C[C@@H](c1c(F)c(F)cc(F)c1F)C2	84.2 % of control
Cn1c(CCC(=O)N2CCOCC2)c2n(c1=S)C[C@@H](c1c(F)ccc(F)c1F)C2	85.3 % of control
CN(C(=O)Cc1c2n(c(=S)n1C)C[C@@H](c1c(F)c(F)cc(F)c1F)C2)C1COC1	94.3 % of control
CN(C(=O)Cc1c2n(c(=S)n1C)C[C@H](c1c(F)ccc(Br)c1F)C2)C1COC1	56.8 % of control
Cn1c(CC(=O)N[C@@H]2CCOC2)c2n(c1=S)C[C@H](c1c(F)ccc(F)c1F)C2	106.2 % of control
Cn1c(CC(=O)NCC#N)c2n(c1=S)C[C@H](c1c(F)ccc(Br)c1F)C2	63.4 % of control
O=C(Cc1[nH]c(=S)n2c1C[C@H](c1c(F)ccc(F)c1F)C2)N[C@@H]1CCCOC1	101.3 % of control
Cn1c(CC(=O)NC2COC2)c2n(c1=S)C[C@@]1(c3cc(Cl)ccc3F)C[C@@H]21	56.9 % of control
Cn1c(CC(=O)O)c2n(c1=S)C[C@@]1(c3c(F)ccc(Cl)c3F)C[C@@H]21	35.9 % of control
CC(C)NC(=O)Cc1c2n(c(=S)n1C)C[C@@]1(c3cc(Br)ccc3F)C[C@@H]21	84.8 % of control
O=C(Cc1[nH]c(=S)n2c1C[C@H](c1c(F)ccc(Br)c1F)C2)NCc1ccccn1	77.8 % of control
O=C(Cc1[nH]c(=S)n2c1[C@@H]1C[C@]1(c1cc(Br)ccc1F)C2)N[C@@H]1CCOC1	73.9 % of control
O=C(Cc1[nH]c(=S)n2c1C[C@H](c1c(F)c(F)cc(F)c1F)C2)N[C@H]1CCOC1	86.0 % of control
Cn1c(CC(=O)N[C@H]2CCOC2)c2n(c1=S)C[C@@]1(c3cc(Br)ccc3F)C[C@@H]21	64.2 % of control
O=C(Cc1[nH]c(=S)n2c1C[C@H](c1c(F)ccc(Br)c1F)C2)NCCO	118.2 % of control
Cn1c(CC(=O)NC2CC2)c2n(c1=S)C[C@@]1(c3cc(Br)ccc3F)C[C@@H]21	62.1 % of control
Cl.Cn1cc(CNCCc2c3n(c(=S)n2C)C[C@@]2(c4cc(Cl)ccc4F)C[C@@H]32)cn1	109.6 % of control
Cn1c(CC(=O)N2CCS(=O)(=O)CC2)c2n(c1=S)C[C@H](c1c(F)ccc(Br)c1F)C2	11.4 % of control
Cn1c(CC(=O)NC[C@H]2CCCO2)c2n(c1=S)C[C@H](c1c(F)ccc(Cl)c1F)C2	48.2 % of control
Cl.Cn1c(CCN2CCOCC2)c2n(c1=S)C[C@@H](c1c(F)c(F)cc(F)c1F)C2	105.9 % of control
Cn1c(CC(=O)NC2CCOCC2)c2n(c1=S)C[C@H](c1c(F)ccc(F)c1F)C2	75.3 % of control
Cn1c(CC(=O)Nc2nccs2)c2n(c1=S)C[C@@H](c1c(F)c(F)cc(F)c1F)C2	87.6 % of control
O=C(O)Cc1[nH]c(=S)n2c1[C@@H]1C[C@]1(c1cc(Br)ccc1F)C2	60.0 % of control
CN(C(=O)Cc1c2n(c(=S)n1C)C[C@@H](c1c(F)ccc(F)c1F)C2)[C@@H]1CCOC1	131.0 % of control
Fc1ccc(Br)c(F)c1[C@H]1Cc2c(CCc3cccnc3)[nH]c(=S)n2C1	109.1 % of control

###

- Tested On: Dopamine beta hydroxylase (Homo sapiens, UniProt P09172)
- Construct: 125 μl of plasma; tissue Instituto Português do Sangue Transplantação; host or cells: human plasma from healthy donors
- Assay Protocol: Dopamine beta hydroxylase activity in human plasma
- Assay type: biochemical
- Reported Conditions: inhibitor 0.01 μM
Below, each entry is listed alongside its reported Plasma (0.01 μM), activity in % of control.
Assay Metric: Plasma (0.01 μM), activity in % of control

Compound	Result
Cn1c(CC(=O)N[C@H]2CCOC2)c2n(c1=S)C[C@@]1(c3c(F)ccc(Cl)c3F)C[C@@H]21	27.7 % of control
O=C(O)C(Cc1[nH]c(=S)n2c1C[C@H](c1c(F)c(F)cc(F)c1F)C2)C(=O)O	62.4 % of control
CN1CC(NC(=O)Cc2c3n(c(=S)n2C)C[C@@H](c2c(F)ccc(F)c2F)C3)CCC1=O (stereo partly drawn)	79.0 % of control
Cn1c(CC(=O)N2CC[C@H](C#N)C2)c2n(c1=S)C[C@@H](c1c(F)ccc(F)c1F)C2	92.4 % of control
CN(CCc1[nH]c(=S)n2c1C[C@@H](c1c(F)ccc(Cl)c1F)C2)C(=O)c1cccnc1	100.8 % of control
Cn1c(CC(=O)N2CCOCC2)c2n(c1=S)C[C@H](c1cc(F)cc(F)c1)C2	92.5 % of control
CN(C(=O)Cc1c2n(c(=S)n1C)C[C@@]1(c3cc(Br)ccc3F)C[C@@H]21)[C@@H]1CCOC1	49.6 % of control
Cl.O=C(Cc1[nH]c(=S)n2c1C[C@@H](c1c(F)ccc(Cl)c1F)C2)NCCN1CCC(F)(F)CC1	48.0 % of control
Cn1c(CCC(=O)N[C@@H]2CCOC2)c2n(c1=S)C[C@@H](c1c(F)ccc(F)c1F)C2	94.9 % of control
O=C(Cc1[nH]c(=S)n2c1C[C@H](c1c(F)ccc(F)c1F)C2)N1CCOCC1	124.8 % of control
Cn1c(CC(=O)N[C@@H]2CCOC2)c2n(c1=S)C[C@@]1(c3cc(Br)ccc3F)C[C@@H]21	61.7 % of control
CS(=O)(=O)C1CCN(C(=O)Cc2[nH]c(=S)n3c2C[C@@H](c2c(F)ccc(Br)c2F)C3)C1 (stereo partly drawn)	65.8 % of control
CN(C)C(=O)C1CCN(C(=O)Cc2c3n(c(=S)n2C)C[C@H](c2c(F)ccc(Br)c2F)C3)CC1	49.6 % of control
Cn1c(CC(=O)N2CCOCC2)c2n(c1=S)C[C@@H](c1c(F)c(F)cc(F)c1F)C2	91.5 % of control
O=C(Cc1[nH]c(=S)n2c1[C@@H]1C[C@]1(c1c(F)ccc(Cl)c1F)C2)NCc1cccnc1	73.7 % of control
